# target or test system: mouse BLyS protein (mouse, UniProt Q9WU72 69-309)
# Sequence (Q9WU72 69-309): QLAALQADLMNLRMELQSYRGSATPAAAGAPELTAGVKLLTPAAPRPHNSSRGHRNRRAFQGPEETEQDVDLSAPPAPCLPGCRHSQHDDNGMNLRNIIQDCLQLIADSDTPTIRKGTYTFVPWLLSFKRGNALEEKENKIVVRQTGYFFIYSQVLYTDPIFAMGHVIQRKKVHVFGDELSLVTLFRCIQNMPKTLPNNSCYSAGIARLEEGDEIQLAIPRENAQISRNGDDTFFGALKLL
# test details: cell-based or functional assay
endpoint label: mouse B lymphocyte proliferation (OD450 nm), antibody 100 nM
// units = OD450 nm; emit number, no label

[[record]]
binder = "89A2G5E7 (antibody, V domains shown, Mouse hybridoma monoclonal antibody purified on Protein G) VH: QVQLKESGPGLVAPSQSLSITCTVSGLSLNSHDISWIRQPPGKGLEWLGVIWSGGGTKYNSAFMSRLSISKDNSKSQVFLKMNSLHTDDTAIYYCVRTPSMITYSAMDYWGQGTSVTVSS VL: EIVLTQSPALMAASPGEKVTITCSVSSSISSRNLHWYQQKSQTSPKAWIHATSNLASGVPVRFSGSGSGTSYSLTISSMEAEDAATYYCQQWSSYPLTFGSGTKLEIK"
meas_value = 2480

[[record]]
binder = "97A3C2H4 (antibody, V domains shown, Mouse hybridoma monoclonal antibody purified on Protein G) VH: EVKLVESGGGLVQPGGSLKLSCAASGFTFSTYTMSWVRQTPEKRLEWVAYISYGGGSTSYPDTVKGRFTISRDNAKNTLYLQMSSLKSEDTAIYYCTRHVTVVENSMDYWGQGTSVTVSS VL: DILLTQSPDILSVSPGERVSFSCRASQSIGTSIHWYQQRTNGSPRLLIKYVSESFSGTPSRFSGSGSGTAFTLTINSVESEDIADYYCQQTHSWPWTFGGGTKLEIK"
meas_value = 2320


Exercise: # return recorded mouse B lymphocyte proliferation (OD450 nm), antibody 100 nM for input 20D1B6E9E5 (antibody, V domains shown, Mouse hybridoma monoclonal antibody purified on Protein G) VH: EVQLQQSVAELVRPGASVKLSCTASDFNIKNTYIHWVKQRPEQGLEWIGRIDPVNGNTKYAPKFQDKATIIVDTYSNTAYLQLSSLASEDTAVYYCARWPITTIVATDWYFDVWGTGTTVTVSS VL: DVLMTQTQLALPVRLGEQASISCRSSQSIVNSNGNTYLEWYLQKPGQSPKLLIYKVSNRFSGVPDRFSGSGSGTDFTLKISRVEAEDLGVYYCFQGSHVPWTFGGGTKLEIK
Key: 1920

Exercise: # return recorded mouse B lymphocyte proliferation (OD450 nm), antibody 100 nM for input 67A2E1D10 (antibody, V domains shown, Mouse hybridoma monoclonal antibody purified on Protein G) VH: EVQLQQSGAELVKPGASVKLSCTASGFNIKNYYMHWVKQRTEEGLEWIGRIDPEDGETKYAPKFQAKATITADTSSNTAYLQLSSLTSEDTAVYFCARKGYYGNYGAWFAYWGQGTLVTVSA VL: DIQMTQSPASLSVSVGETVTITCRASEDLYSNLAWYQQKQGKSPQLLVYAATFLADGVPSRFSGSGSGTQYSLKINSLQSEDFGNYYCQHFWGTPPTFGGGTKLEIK
Key: 2070
